- Tested on: Pseudomonas aeruginosa
- assay_name: Bactericidal activity against Pseudomonas aeruginosa ATCC 27853 incubated for 24 hrs followed by serial sub-cultivation and measured after 24 hrs by microdilution method
- Assay type: functional
readout: MBC99.5 (×10⁻² umol/ml)
Just the number in ×10⁻² umol/ml, nothing appended.

Challenge: If you can, please state the reported MBC99.5 value of CC1(C)S[C@@H]2[C@H](NC(=O)[C@H](N)c3ccccc3)C(=O)N2[C@H]1C(=O)O [AMPICILLIN] .
Response given: 124

Challenge: Also need `O=C(N/N=C/c1c(F)cccc1Cl)c1nsc2ccccc12` , thanks.
Response given: 48

Challenge: Then this molecule: O=C(Cc1nsc2ccccc12)NN1C(=O)CSC1c1ccc(Cl)cc1 (configuration not stated)
Response given: 74.4

Challenge: Then O=C(Cc1nsc2ccccc12)NN1C(=O)CSC1c1ccccc1Cl (configuration not stated) ?
Response given: 74.4

Challenge: Next molecule up: O=C(NN1C(=O)CSC1c1ccc(F)cc1)c1nsc2ccccc12 (configuration not stated)
Response given: 21.4

Challenge: Item: `O=C(Cc1nsc2ccccc12)N/N=C/c1c(F)cccc1Cl`
Response given: 48.2

Challenge: Lookup `O=C(N/N=C/c1c(Cl)cccc1Cl)c1nsc2ccccc12`
Response given: 46.4

* * *

- Test system: Trichoderma viride
- assay_name: Antifungal activity against Trichoderma viride IAM 5061 after 72 hrs by serial dilution method
- Format: functional
- particulars: IAM 5061, 72 h
readout: log10 MIC (log10 of the value in µM)
On a log10 scale: recorded MIC, unit µM.

Challenge: Query log10 MIC on Trichoderma viride for `O=C(N/N=C/c1c(F)cccc1Cl)c1nsc2ccccc12`
Response given: 2.38

Challenge: // next record O=C(Cc1nsc2ccccc12)NN1C(=O)CSC1c1ccccc1Cl (stereo unspecified)
Response given: 1.87

Challenge: Also need c1ccc(-c2ccc(C(c3ccccc3)n3ccnc3)cc2)cc1 (stereo unspecified) , thanks.
Response given: 2.81

Challenge: Next: O=C(NN1C(=O)CSC1c1c(Cl)cccc1Cl)c1nsc2ccccc12 (stereo unspecified)
Response given: 2.12

Challenge: Now give it for O=C(NN1C(=O)CSC1c1c(F)cccc1Cl)c1nsc2ccccc12 (stereo unspecified) too.
Response given: 2.14

Challenge: Next compound: O=C(NN1C(=O)CSC1c1ccccc1F)c1nsc2ccccc12 (stereo unspecified)
Response given: 1.43

* * *

Field: MBC99.5. Provide a value for each of the compounds that follow.
- Tested on: Staphylococcus aureus
- assay_name: Bactericidal activity against Staphylococcus aureus ATCC 6538 incubated for 24 hrs followed by serial sub-cultivation and measured after 24 hrs by microdilution method
- Type: functional
// units = ×10⁻² umol/ml; emit number, no label

Challenge: Query: MBC99.5; subject: O=C(Cc1nsc2ccccc12)NN1C(=O)CSC1c1ccc(Cl)cc1 (stereo not given)
Response given: 37.2

Challenge: Would you kindly repeat that for O=C(NN1C(=O)CSC1c1ccccc1)c1nsc2ccccc12 (stereo not given) ?
Response given: 42.2

Challenge: Same thing, different compound: O=C(NN1C(=O)CSC1c1c(Cl)cccc1Cl)c1nsc2ccccc12 (stereo not given)
Response given: 39.5

Challenge: Note, next up: O=C(NN1C(=O)CSC1c1cccc(F)c1)c1nsc2ccccc12 (stereo not given)
Response given: 21.4

Challenge: Also check O=C(Cc1nsc2ccccc12)NN1C(=O)CSC1c1cccc(Cl)c1 (stereo not given)
Response given: 37.2

Reference source: ChEMBL document CHEMBL4257449
